List of CC50 values.
- assay.details: Hela cell cytotoxicity (CC50)
- test.context: human, HeLa cells (human cervical cancer cells), CC50_Hela, half of the toxic concentration

COc1ncc(-c2cccc(F)c2)cc1C(c1ccccc1)C(O)(CCN(C)C)c1cccc2ccccc12 (stereo not drawn) [Compound 87]
62.8 µg/mL
COc1ncc(-c2ccc(Br)cc2)cc1C(c1ccccc1)C(O)(CCN(C)C)c1cccc2ccccc12 (stereo not drawn) [Compound 133]
> 64 µg/mL

API: the following record is the query input.
# return recorded CC50 for input COc1nc(OC)c(C(c2ccccc2)C(O)(CCN(C)C)c2cccc3ccccc23)cc1-c1ccc(Cl)cc1 (single isomer, unassigned) [Compound 401]
> 64 µg/mL

* * *

- System: Vero Cell
- assay.details: Vero cell cytotoxicity (IC50)
- Type: cell-based
- test.context: Chlorocebus sabaeus, Vero, African green monkey kidney cells
endpoint: IC50

Here's what some known entries look like.
COc1ncc(-c2ccc(Br)c(F)c2)cc1C(c1ccccc1)C(O)(CCN(C)C)c1cccc2ccccc12 (centres unmarked)
> 32 µg/mL
COc1ncc(C#Cc2ccccc2)cc1C(c1ccccc1)C(O)(CCN(C)C)c1cccc2ccccc12 (centres unmarked)
> 32 µg/mL
COc1ncc(-c2ccccc2Br)cc1C(c1ccccc1)C(O)(CCN(C)C)c1cccc2ccccc12 (centres unmarked)
> 32 µg/mL
COc1ncc(-c2ccccc2)cc1C(c1ccccc1)C(O)(CCN(C)C)c1ccccc1 (centres unmarked)
> 50 µg/mL

# return recorded IC50 for input CCOc1ncc(-c2ccccc2)cc1C(c1ccccc1)C(O)(CCN(C)C)c1cccc2ccccc12 (centres unmarked)
> 32 µg/mL

The origin of these recorded values is patent US9878982B2.
